// data source = PubChem BioAssay

Listing of recorded inhibition by entry.
system name: Dual specificity protein phosphatase 6 (Homo sapiens) (UniProt Q16828)
Sequence (Q16828 whole entry, looked up): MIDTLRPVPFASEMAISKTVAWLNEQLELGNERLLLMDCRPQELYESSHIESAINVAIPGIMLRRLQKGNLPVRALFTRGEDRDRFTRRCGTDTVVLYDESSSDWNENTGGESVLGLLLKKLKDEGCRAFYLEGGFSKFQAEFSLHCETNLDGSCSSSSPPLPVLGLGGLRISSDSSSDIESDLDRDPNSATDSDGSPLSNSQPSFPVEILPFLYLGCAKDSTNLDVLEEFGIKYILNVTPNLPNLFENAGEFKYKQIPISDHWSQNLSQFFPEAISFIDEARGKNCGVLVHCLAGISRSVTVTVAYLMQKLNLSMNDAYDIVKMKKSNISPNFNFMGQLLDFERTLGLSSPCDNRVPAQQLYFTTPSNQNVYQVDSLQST
assay comment: DUSP6 inhibitors restoring Erk phosphorylation by chemical complementation, primary imaging in DUSP6-transfected HeLa (AID 609);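 further: phospho-Erk level distribution per well compared with pooled transfected vehicle control wells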
recorded conditions: HeLa MKP-3 transfected, phospho-Erk imaging KS statistic; at 10 µM; stronger effect = higher value; cells stimulated with TPA for 15 min

smiles str: O=C(NCCCNCc1ccccc1)/C(=N\O)c1ccccc1
inhibition (%): 15.9
//
smiles str: CCOC(=O)c1c(C)n(C)c2ccc(OC)c(NC(=O)CN3CCC4(CC3)OCCO4)c12
inhibition (%): -10.1
//
smiles str: CCCCOC(=O)c1[nH]c(C)c(C(=O)OC)c1C
inhibition (%): 37

###

system name: Voltage-gated potassium channel subunit beta-2 (Rattus norvegicus)
assay comment: KvBeta positive modulators, primary screen, biochemical, NADPH fluorescence (AID 623);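 further: fluorescence intensity change per second fitted from 20 to 320 s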
recorded conditions: Recombinant KvBeta, NADPH fluorescence decrease slope, 10 min; at 10 µM; stronger effect = lower value
measurement kind: NADPH fluorescence slope

compound: C=CCOc1ccc(/C(O)=C2/C(=O)C(=O)N(CCCN3CCOCC3)C2c2ccccc2)cc1 (centres undefined)
system name: Voltage-gated potassium channel subunit beta-2 (Rattus norvegicus)
measurement kind: NADPH fluorescence slope
reported value: -0.000122
--
compound: CCn1c(SCC(=O)NC2CCCCC2C)nnc1-c1ccc(OC)cc1 (centres undefined)
system name: Voltage-gated potassium channel subunit beta-2 (Rattus norvegicus)
measurement kind: NADPH fluorescence slope
reported value: -0.000123
--
compound: Clc1ccc(-n2ncc3c(NCc4cccs4)ncnc32)cc1
system name: Voltage-gated potassium channel subunit beta-2 (Rattus norvegicus)
measurement kind: NADPH fluorescence slope
reported value: -2.1e-05
--
compound: CC(NC(=O)Nc1ncccn1)(C(F)(F)F)C(F)(F)F
system name: Voltage-gated potassium channel subunit beta-2 (Rattus norvegicus)
measurement kind: NADPH fluorescence slope
reported value: -0.000112

###

assay comment: inhibitors of mutant huntingtin aggregation, primary screen, imaging, exon1htt(103Q)mCFP cells, high-content imaging (AID 483);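 further: compound exposure lasted 3 days before fixation; percent of the per-plate median nuclei count of sample wells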
recorded conditions: exon1htt(103Q)mCFP cell line, aggregate imaging, at 2 µM; measured here: cell count, toxicity

compound: CCOC(=O)C(CCc1nnc(N)s1)C(=O)OCC
nuclei count: 105%
//
compound: Cc1onc(-c2ccccc2Cl)c1C(=O)Nc1cccnc1
nuclei count: 106%
//
compound: CCOC(=O)c1c(C)[nH]c(C(=O)CSc2nc3ccccc3o2)c1C
nuclei count: 107%
//
compound: O=C(NCC1CCCO1)C1CCCN(Cc2cnn(-c3ccccc3)c2-n2cccc2)C1 (stereo not given)
nuclei count: 86.3%
//
compound: Cc1cc2n(n1)C(c1ccccc1)Nc1ccccc1-2 (stereo not given)
nuclei count: 101%
//
compound: O=c1[nH]c2sc3c(c2c2nncn12)CCCC3
nuclei count: 108%
//
compound: CN(CC(=O)O)S(=O)(=O)c1cc(Cl)ccc1Cl
nuclei count: 111%
//
compound: Oc1ccc(-c2n[nH]c(=S)n2Cc2ccccc2)cc1
nuclei count: 109%
//
compound: O=C(NCC(c1cccnc1)N1CCN(c2ccccc2)CC1)c1ccc2c(c1)OCO2 (stereo not given)
nuclei count: 87.1%
//
compound: Cn1c(=O)cc(OCCCC(=O)Nc2ccc3c(c2)OCCO3)c2ccccc21
nuclei count: 101%
//
compound: COc1cc(S(=O)(=O)N2CCOCC2)ccc1NC(=O)COC(=O)C12CC3CC(CC(C3)C1)C2
nuclei count: 108%
//
compound: CC(C)N(C(=O)CSc1nnc(-c2cc3ccccc3cc2O)n1Cc1ccco1)C(C)C
nuclei count: 107%
//
compound: Cc1cc(C)c(OCC(=O)Nc2ccc3c(c2)OCO3)cc1C
nuclei count: 101%
//
compound: COc1ccc(/C(O)=C2/C(=O)C(=O)N(CCCN(C)C)C2c2ccc(Cl)cc2)cc1OC (stereo not given)
nuclei count: 122%
//
compound: O=C(Nc1cccc2ccccc12)c1cnccn1
nuclei count: 96.9%
//
compound: Cc1ccc(-c2ccc(=O)n(CCC(=O)NCCN3CCCCC3C)n2)cc1 (stereo not given)
nuclei count: 86.5%
//
compound: CCOC(=O)CC12CN3CN(C1)CC(CC(=O)OCC)(C3)C2=O
nuclei count: 83.7%
//
compound: CCOC(=O)CSc1nnc(Cn2c(=O)sc3ccccc32)n1C
nuclei count: 106%
//
compound: Cc1cc(NC(=O)CCC(=O)N(c2cccnc2)C(C(=O)NC2CCCC2)c2ccccc2F)no1 (stereo not given)
nuclei count: 107%
//
compound: CCOC(=O)C1(CC)NC(c2cccc(F)c2)C2C(=O)N(CC)C(=O)C21 (stereo not given)
nuclei count: 93.8%
